For each entry below, report its IC50 value.
# System under test: RORγ (Homo sapiens, UniProt P51449)
# Construct: expressed in transfected cells; host or cells: 293FT cells (Invitrogen), expression vector pFN26A (Promega)
# Sequence (P51449 269-508 limits assumed): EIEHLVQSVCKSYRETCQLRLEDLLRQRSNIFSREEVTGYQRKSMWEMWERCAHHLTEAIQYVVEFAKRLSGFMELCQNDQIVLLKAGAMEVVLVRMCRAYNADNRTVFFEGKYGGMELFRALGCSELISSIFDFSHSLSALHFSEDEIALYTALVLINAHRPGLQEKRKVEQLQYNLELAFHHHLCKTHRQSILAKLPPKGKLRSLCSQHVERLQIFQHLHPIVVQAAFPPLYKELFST
# Protocol description: RORγ GAL4 reporter gene assay (luciferase readout)
# Assay type: cell-based
# Protocol conditions: inhibition of RORγ (GAL4-RORγ-LBD) in 293FT cells, luciferase signal; read-out: mean pIC50 (converted)
# Method: Example inhibitors 1-38 were tested for their ability to inhibit RORγ activity in a RORγ GAL4 reporter gene assay. The assay procedure and results are described below. A GAL4 one-hybrid reporter system employing luciferase readout was established to determine inhibition of RORγ in 293FT cells. […] For compound screening, the cells were harvested (as described above) and counted. […]

Consider the following illustrative entries.
[
  {
    "Compound": "CCOC(c1ccc(C(=O)NCc2ccc(S(=O)(=O)CC3CC3)cc2C)cc1)(C(F)(F)F)C(F)(F)F [Example 29]",
    "Value": "≤ 100 nM"
  },
  {
    "Compound": "CCS(=O)(=O)c1ccc(CNC(=O)c2ccc(C(O)(C(F)(F)F)C(F)(F)F)cc2)cc1 [Example 19]",
    "Value": "< 10000 nM"
  },
  {
    "Compound": "COC(c1ccc(C(=O)NCc2ccc(S(=O)(=O)CC3CC3)cc2)cc1)(C(F)(F)F)C(F)(F)F [Example 22]",
    "Value": "≤ 100 nM"
  }
]

Now, please, on to the next compound.
// recorded IC50 for CCC(O)(c1ccc(C(=O)NCc2ccc(S(=O)(=O)CC3CC3)cc2)cc1)C(F)(F)F (racemic) [Example 1] : ≤ 100 nM

###

# System under test: RORγ (Homo sapiens)
# Construct: expressed in transfected cells; host or cells: 293FT cells (Invitrogen), expression vector pFN26A (Promega)
# Protocol description: RORγ GAL4 reporter gene assay (luciferase readout)
# Format: cell-based
# Protocol conditions: inhibition of RORγ (GAL4-RORγ-LBD) in 293FT cells, luciferase signal; read-out: mean pIC50 (converted)
For each record, write down the corresponding IC50.

Example entries and their recorded answers appear below.
[
  {
    "Molecule": "CCCOC(c1ccc(C(=O)NCc2ccc(S(=O)(=O)CC3CC3)cc2)cc1)(C(F)(F)F)C(F)(F)F",
    "Readout type": "IC50",
    "Value": "≤ 100 nM"
  },
  {
    "Molecule": "O=C(NCc1ccc(S(=O)(=O)CC2CC2)cc1)c1ccc(C(O)(C2CCCC2)C(F)(F)F)cc1 (stereo not drawn)",
    "Readout type": "IC50",
    "Value": "≤ 100 nM"
  },
  {
    "Molecule": "CCOC(c1ccc(C(=O)NCc2ccc(S(=O)(=O)NC3CC3)cc2)cc1)(C(F)(F)F)C(F)(F)F",
    "Readout type": "IC50",
    "Value": "≤ 1000 nM"
  },
  {
    "Molecule": "O=C(NCc1ccc(S(=O)(=O)CC2CC2)cc1)c1ccc(C(OCc2ccccc2)(C(F)(F)F)C(F)(F)F)cc1",
    "Readout type": "IC50",
    "Value": "≤ 1000 nM"
  },
  {
    "Molecule": "O=C(NCc1ccc(S(=O)(=O)CC2CC2)cc1)c1ccc(C(O)(C(F)F)C(F)(F)F)cc1 (stereo not drawn)",
    "Readout type": "IC50",
    "Value": "≤ 1000 nM"
  }
]

Could I get IC50 for every one of these entries?
1. CC(C)(C)CC(O)(c1ccc(C(=O)NCc2ccc(S(=O)(=O)CC3CC3)cc2)cc1)C(F)(F)F (stereo not drawn)
2. O=C(NCc1ccc(S(=O)(=O)CC2CC2)cc1)c1ccc(C(O)(C(F)(F)F)C(F)(F)F)cc1
3. Cc1cc(C(=O)NCc2ccc(S(=O)(=O)CC3CC3)cc2)ccc1C(O)(C(F)(F)F)C(F)(F)F
4. CCCCOC(c1ccc(C(=O)NCc2ccc(S(=O)(=O)CC3CC3)cc2)cc1)(C(F)(F)F)C(F)(F)F
5. CC(O)(c1ccc(C(=O)NCc2ccc(S(=O)(=O)CC3CC3)cc2)cc1)C(F)(F)F (stereo not drawn)
6. Cc1cc(C(O)(c2ccc(C(=O)NCc3ccc(S(=O)(=O)CC4CC4)cc3)cc2)C2CC2)no1 (stereo not drawn)

1: ≤ 100 nM; 2: ≤ 100 nM; 3: ≤ 100 nM; 4: ≤ 100 nM; 5: ≤ 1000 nM; 6: ≤ 1000 nM

Please report IC50 for every entry that follows.
1. CC(C)CC(O)(c1ccc(C(=O)NCc2ccc(S(=O)(=O)CC3CC3)cc2)cc1)C(F)(F)F (stereo not drawn)
2. C[C@H](NC(=O)c1ccc(C(O)(C(F)(F)F)C(F)(F)F)cc1)c1ccc(S(=O)(=O)CC2CC2)cc1
3. CCC(O)(c1ccc(C(=O)NCc2ccc(S(=O)(=O)CC3CC3)cc2)cc1)C(F)(F)F (racemic) [(+)-1]
4. O=C(NCc1ccc(S(=O)(=O)CC2CC2)cc1)c1ccc(C(O)(Cc2ccccc2)C(F)(F)F)cc1 (stereo not drawn)

≤ 100 nM
≤ 1000 nM
≤ 100 nM
≤ 100 nM
